tested-on: UniProt P05121
assay-procedure: Inhibitory activity against human plasminogen activator inhibitor-1 (PAI-1) evaluated by chromogenic assay.
measurement-label: IC50 (µM)

Below, each entry is followed by its recorded IC50 result.
>  <compound>
O=C(O)CCCCCCCOc1ccc(NC(=O)c2c(O)c3cc(F)ccc3[nH]c2=O)cc1

>  <IC50 (µM)>
4.9

$$$$
>  <compound>
O=C(O)CCCCCCCOc1ccc(NC(=O)c2c(O)c3c([N+](=O)[O-])cccc3[nH]c2=O)cc1

>  <IC50 (µM)>
7.9

$$$$
>  <compound>
O=C(O)CCCCCCCOc1ccc(NC(=O)c2c(O)nc3ccc(Cl)cc3c2O)cc1

>  <IC50 (µM)>
1.95

$$$$
>  <compound>
O=C(O)CCCCCCCOc1ccc(NC(=O)C2=C(O)CN(c3ccc(Cl)c(Cl)c3)C2=O)cc1

>  <IC50 (µM)>
13

$$$$
>  <compound>
O=C(O)CCCCCCCOc1ccc(NC(=O)c2c(O)c3cc(-c4ccc(Cl)cc4)ccc3[nH]c2=O)cc1

>  <IC50 (µM)>
2

$$$$

(a) O=C(O)CCCCCCCOc1ccc(NC(=O)c2c(O)c3ccc(-c4cc5ccccc5s4)cc3[nH]c2=O)cc1
(b) O=C(O)CCCCCCCOc1ccc(NC(=O)C2=C(O)CN(c3ccc4ccccc4c3)C2=O)cc1
(c) O=C(O)CCCCCCCOc1ccc(NC(=O)c2c(O)c3cc(-c4ccc5ccccc5c4)ccc3[nH]c2=O)cc1
q: Which order do these items take when sorted by rising IC50? List them. Kindly provide the labels arranged according to the requested ordering.
a: a, c, b

====

tested-on: Plasminogen activator inhibitor 1 (Homo sapiens)
Sequence (P05121 whole entry): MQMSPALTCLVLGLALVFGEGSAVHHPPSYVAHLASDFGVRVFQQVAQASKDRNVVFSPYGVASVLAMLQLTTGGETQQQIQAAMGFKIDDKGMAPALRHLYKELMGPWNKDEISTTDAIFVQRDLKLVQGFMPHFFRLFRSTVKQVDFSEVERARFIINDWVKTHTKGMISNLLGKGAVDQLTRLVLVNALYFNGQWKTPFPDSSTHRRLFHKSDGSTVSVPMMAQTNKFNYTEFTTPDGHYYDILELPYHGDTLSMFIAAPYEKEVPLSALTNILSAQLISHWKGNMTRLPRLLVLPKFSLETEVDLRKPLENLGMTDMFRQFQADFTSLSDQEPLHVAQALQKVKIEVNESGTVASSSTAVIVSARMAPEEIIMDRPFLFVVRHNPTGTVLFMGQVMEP
assay-procedure: Inhibitory activity against human plasminogen activator inhibitor-1 (PAI-1) evaluated by chromogenic assay.
measurement-label: IC50 (nM)

>  <structure-notation>
CC(C)c1ccc(N2CC(O)=C(C(=O)Nc3ccc(OCCCCCCCC(=O)O)cc3)C2=O)cc1

>  <IC50 [nM]>
2350

$$$$
>  <structure-notation>
O=C(O)CCCCCCCOc1ccc(NC(=O)C2=C(O)CN(c3ccc(Cl)cc3)C2=O)cc1

>  <IC50 [nM]>
5000

$$$$
>  <structure-notation>
O=C(O)CCCCCCCOc1ccc(NC(=O)c2c(O)c3ccc(-c4ccc5ccccc5c4)cc3[nH]c2=O)cc1

>  <IC50 [nM]>
600

$$$$
>  <structure-notation>
O=C(O)CCCCCCCOc1ccc(/C=c2/[nH]c(=O)/c(=C/c3ccc(NC(=O)c4cccs4)cc3)[nH]c2=O)cc1

>  <IC50 [nM]>
200

$$$$
>  <structure-notation>
O=C(O)CCCCCCCOc1ccc(NC(=O)c2c(O)c3ccc(C(F)(F)F)cc3[nH]c2=O)cc1

>  <IC50 [nM]>
1030

$$$$

(P) O=C(O)CCCCCCCOc1ccc(NC(=O)c2c(O)nc3cc(F)c(F)cc3c2O)cc1
(Q) N#Cc1ccc2c(O)c(C(=O)Nc3ccc(OCCCCCCCC(=O)O)cc3)c(=O)[nH]c2c1
(R) Nc1cccc2nc(O)c(C(=O)Nc3ccc(OCCCCCCCC(=O)O)cc3)c(O)c12
(S) O=C(O)CCCCCCCOc1ccc(NC(=O)c2c(O)c3c(I)cccc3[nH]c2=O)cc1
(T) COc1ccc(-c2cccc3c(O)c(C(=O)Nc4ccc(OCCCCCCCC(=O)O)cc4)c(=O)[nH]c23)cc1
q: Which order do these items take when sorted by rising IC50? List them. Kindly provide the labels arranged according to the requested ordering.
a: Q, P, R, S, T
(Q: 900 nM, P: 2350 nM, R: 4250 nM, S: 7000 nM, T: 30000 nM)
